Where do these numbers come from? They come from PubChem BioAssay (NCI).

- System: RXF 393 renal
- method_summary: NCI tumour cell line growth inhibition, 48 h
TGI by entry:

# annotated cases, reported TGI shown
[
  {
    "molecule": "C=C1C(=O)O[C@H]2[C@H]1CC/C(COC(=O)/C=C/c1c[nH]c3ccccc13)=C\\CC[C@@]1(C)O[C@@H]21",
    "value_measured": "0.331 µM"
  },
  {
    "molecule": "N#Cc1c(NCc2ccccc2)nc(NCc2ccccc2)c(C#N)c1-c1cccc(O)c1",
    "value_measured": "34.9 µM"
  },
  {
    "molecule": "[N-]=[N+]=Nc1c(Br)c(=O)[nH]c(=O)n1COCCO",
    "value_measured": "> 100 µM"
  },
  {
    "molecule": "C=C(C(=O)OC)[C@H]1CC/C(C)=C/CC/C(C)=C/CC[C@@]2(C)O[C@@H]2C1",
    "value_measured": "28.8 µM"
  },
  {
    "molecule": "Cc1ccc2c(=O)c(C(=O)N(CCO)CCO)c[nH]c2n1",
    "value_measured": "> 100 µM"
  },
  {
    "molecule": "CC1(C)O[C@@H](CP(c2cccc3ccccc23)c2cccc3ccccc23)[C@H](CP(c2cccc3ccccc23)c2cccc3ccccc23)O1",
    "value_measured": "> 100 µM"
  },
  {
    "molecule": "C[C@]12CC[C@H]3[C@@H](CCC4=C[C@@H](OC5OCC(OC6OC(CO)C(O)C(O)C6O)C(O)C5O)CC[C@@]43C=O)[C@@]1(O)CCC2C1=CC(=O)OC1 (stereo not given in full)",
    "value_measured": "1.2 µM"
  },
  {
    "molecule": "O=S(=O)(O)c1ccc(Nc2ccnc3cc(Cl)ccc23)cc1",
    "value_measured": "> 100 µM"
  }
]

Problem: I am curious: what TGI value has been reported for `COC(=O)/C=C\C(C#N)(C#N)N=Cc1ccsc1` ?
Solution: 3.72 µM

Problem: Consider the molecule Cc1nc2sc(C(=O)Nc3cccc(Cl)c3C)c(N)c2cc1C(C)O (stereo not given) and give its measured TGI.
Solution: 18.1 µM

Problem: What value of measured TGI is listed for `CC(=O)NS(=O)(=O)c1ccc(-n2nc(-c3ccccc3)cc2C2=CC(=O)C=CC2=O)cc1` ?
Solution: > 100 µM

Problem: Bench note: what TGI did CCC(=O)OC1=CN2C(=NC(c3ccc(N)cc3)=CC2c2cc(OC)c(OC)c(OC)c2)S1 (stereo not given) show?
Solution: 7.98 µM

Problem: Quick one: TGI for `Cc1[nH]n(-c2ccccc2)c(=O)c1C(=O)c1ccccc1` ?
Solution: > 25 µM

Problem: Give the measured TGI of N=C1C(c2nc(-c3ccc(Br)cc3)cs2)=C(O)CN1CC1CCCO1 (stereo not given) .
Solution: > 100 µM

Problem: Please give the measured TGI for this molecule: CCCC(=O)OC1CC(n2cc(F)c(=O)[nH]c2=O)OC1CO (stereo not given)
Solution: > 10 µM

Problem: Quick one: TGI for N#CC1CCc2c(c(-c3cn[nH]c3C(F)(F)F)nc3c(F)cc4[nH]ncc4c23)C1 (stereo not given) ?
Solution: 7.3 µM

Problem: Name the reported TGI value associated with the molecule `CCOC(=O)C[n+]1ccc2c([nH]c3cc(OC)ccc32)c1C`
Solution: > 100 µM
